- Tested on: PKAC-alpha
- Construct: gene PRKACA
- Protocol conditions: concentration: 1 μM, replicates: in singlicate; n = 1;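 further: KINOMEscan kinase panel screen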
# note: exactly 10% is not below, so it is no; use yes for %Inh strictly under it

# Compound, Cat
rows = [
    ("O=C(Nc1n[nH]c2nc(-c3nccs3)c(Br)cc12)C1CCCC1 [SB-742609]", "yes"),
    ("Cc1ccc(NC(=O)Nc2cc(C(C)(C)C)nn2-c2ccccc2)cc1 [GSK1014915]", "yes"),
    ("Cc1cccc(-c2nc(C)cc(Nc3ccncc3)n2)n1 [GSK257997]", "yes"),
]

In the record for CCn1c(-c2cccnc2O)nc2cnccc21 [SB-736715] , is %Inh less than 10%?
yes

// next record Cl.O=C(Nc1cccc(-c2nn3ncccc3c2-c2ccnc(Nc3cccnc3)n2)c1)c1c(F)cccc1F [GSK312879]
no

Record: CC1=C(C(=O)Nc2cc3cn[nH]c3cc2F)C(c2ccc(C(F)(F)F)cc2)CC(=O)N1 (stereo not drawn) [GSK429286]
no

Moving on to the next compound: Fc1cc(Cl)ccc1Nc1ccnc2cc(-c3ccc(CN4CCCCC4)o3)ccc12 [GW560116]
no

Record: O=C(Nc1n[nH]c2nc(-c3nccs3)c(Br)cc12)C1CC1 [SB-742251]
yes

How about CCn1c(-c2ccccn2)nc2cnccc21 [SB-736398] ?
no

Can you handle Fc1cccc(COc2nnc(-c3ccc4c(c3)CCO4)o2)c1 next?
yes

* * *

- Test system: PRKG1
- Protocol conditions: concentration: 1 μM, replicates: in singlicate; n = 1
Property measured: %Inh

Here are 5 compounds together with their reported answers.
# Compound, %Inh
records = [
    ("CC1=C(C(=O)Nc2cc3cn[nH]c3cc2F)C(c2ccc(C(F)(F)F)cc2)CC(=O)N1 (stereo not shown)", "30%"),
    ("Cc1c(Cn2ccn3c(=O)cc(N4CCOCC4)nc23)cccc1C(F)(F)F", "0%"),
    ("CC(C)(C)c1ccc(C(=O)Nc2cn3cc(-c4cccnc4)ccc3n2)cc1", "7%"),
    ("COc1ccc(CNC(=O)NC2CCN(c3ccnc(Nc4cc(OC)c(OC)c(OC)c4)n3)C2)cc1 (stereo not shown)", "0%"),
    ("Nc1ncnc2[nH]c(-c3ccccc3)nc12", "6%"),
]

Which measured %Inh value corresponds to Cc1ccc(-c2cc(-c3c[nH]nc3-c3ccccn3)ccn2)cc1 ?
0%

Try the compound CCCc1ccc(S(=O)(=O)NC2CCN(c3ccnc(Nc4ccc(F)cc4)n3)C2)cc1 (stereo not shown)
0%

Try this compound too: COC(=O)c1c(-c2ccccc2)c2cc(OC)ccc2c(=O)n1Cc1ccccc1
0%

And for O=C1NC(=O)C(N2CCc3ccccc32)=C1c1ccccc1Cl ?
36%

// query: COc1ccc(C2=C(Nc3cccc(C(=O)O)c3)C(=O)NC2=O)cc1
0%

* * *

- Tested on: ULK1
- Protocol conditions: concentration: 1 μM, replicates: in singlicate; n = 1
Property measured: %Inh
Could you give the number and then its unit, please?

# example entries with known answers
# Smiles data, %Inh
data = [
    ("CSc1nn2c(=O)cc(N3CCOCC3)nc2n1Cc1cccc(C(F)(F)F)c1C", "15%"),
    ("Cc1cc(NCC(c2ccccc2)c2ccccc2)nc(NCc2ccc(C(F)(F)F)cc2)n1", "0%"),
]

// query %Inh value for entry Fc1cc(Cl)ccc1Nc1ccnc2cc(-c3ccc(CN4CCCCC4)o3)ccc12
0%
